Lab note: AC50 readings collected with UniProt:P32245 for the following compounds.
Sequence (P32245 whole entry): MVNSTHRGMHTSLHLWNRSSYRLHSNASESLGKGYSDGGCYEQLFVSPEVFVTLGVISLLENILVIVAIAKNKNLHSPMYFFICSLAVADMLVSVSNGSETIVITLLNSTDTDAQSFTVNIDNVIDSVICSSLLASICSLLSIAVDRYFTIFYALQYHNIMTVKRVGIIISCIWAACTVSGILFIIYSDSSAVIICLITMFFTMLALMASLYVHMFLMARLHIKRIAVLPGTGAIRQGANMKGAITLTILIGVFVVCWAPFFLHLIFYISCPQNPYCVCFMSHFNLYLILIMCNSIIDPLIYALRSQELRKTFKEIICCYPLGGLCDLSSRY

Consider the reported AC50 for these compounds:
Cc1cccc(Nc2ccccc2C(=O)O)c1C : > 10 µM
CC1(C)NC(=O)N(c2ccc([N+](=O)[O-])c(C(F)(F)F)c2)C1=O [NILUTAMIDE] : > 30 µM
CCOc1ccc(Cc2cc([C@@H]3O[C@H](CO)[C@@H](O)[C@H](O)[C@H]3O)ccc2Cl)cc1 : > 30 µM

Next compound, AC50 to be filled in.
## Task Kindly state the measured AC50 obtained for "CCCSc1ccc2nc(NC(=O)OC)[nH]c2c1" with UniProt:P32245.
## Result > 10 µM
